Data provenance: the nanobody polyreactivity screen of Harvey et al. (2022)

- assay.name: yeast display, Sf9 membrane polyspecificity reagent, FACS + sequencing; frameworks hold sequencing errors
quantity.measured: polyreactivity (PSR sort gate)

>>> value_observed("QVHLVESGGGLVQEGGSLRISCAASGGTFHSNDMGWYRQAPGKESELVASINWSGGSTYYSDSVKGRFTISRDNAKNTVYLQMNRLKPEDNAVYYCAARESYPGYGYDHWGQGTQVTVSS")
"low polyreactivity"
>>> value_observed("QVQLEESGGGLVQAGGSHRLSCAASGSIFGPNAMGWSRQAPGKERELVAAISWTGGRTYYADSVKGRFTISRDNAYNTVYLQMNSLKPEDTAVYDCAVKGHPCGQGTQVTVSS")
"low polyreactivity"
>>> value_observed("QVQLVESGRRLVQAGGSLRLSCAASGSIFIPNVMGWYRQAPRKERELVASIRSNGGTNYADSVKGRFTISRDNAKNTVYLQMNSLKPEDTAVYNCAAKRWSYRHGFDYLGQGTQVTVSS")
"high polyreactivity"
>>> value_observed("QVQLVESGGGLVQAGGSLRLSCAASGRIFAWYAMGWYRQAPGKERELVAAISDSGGSTYYADSVKGRFTISRDNAKNTVYLQMNSLKPEDTAVYYCAADQVVYSAYWSDHYDYWGQGTQVTVSS")
"low polyreactivity"
>>> value_observed("QVQLVESVGGLVQAGGSLRLSCAASGLIFFGNTMGWYRQAPGKDRELVAAISKRGTTYYADSVKGRFKISRDNAKNTVYLQMNSLKPEDTAVYYCAAGGTFFHRLDYYYRSDYWGQGTQVTVSS")
"high polyreactivity"
>>> value_observed("QVQLVESGGGLVQAGGSLRLSCADSGLTFSVYTMGWYRQAPGKERELVAAITTSGGRTYYADSVKGRFTISRDNAKNTVYLQKNSLKPEDTAVYYCAAVRTGDTTGTMGYWGQGTQVTVSS")
"high polyreactivity"
>>> value_observed("QVQHVESGGGLVQAGGSLRLSCAASGRTFTYNAMGWYRQAPGKERELVAAISWNGGRTYYADSVKGRFTISRDNAKNTVYLEMNSLKPEETAVYYCNAVSYNLAAYDYWGQGTQVTVSS")
"high polyreactivity"
>>> value_observed("QVQLVESGGALVQAGGSVRLSCAASGRTFGTYAMGWYRQAPGKERELVAAISTRGGRTFYADSVKGRFTISRDNAKNTVYLQMNSLKPEDTAVYYCAAYYKYYEYDYWGQVTQVTVSS")
"high polyreactivity"
>>> value_observed("QVQLVESGGGLVQAGGRLRLSCAASGFIFYYYAMGWYRQAPGKERELVAVLTESASSTYYADSVKGRFTISRDNAKNTVYLQMNSLKPEDTAVYYCNADFWPYTGKYDYWGQGTQVTVSS")
"low polyreactivity"
>>> value_observed("QVQLVESGGGLVQAGGSLRLSCAASGNILWFNAMGWYRQAPGKERELVASITSSGGRTYYADSVKGRFTISRDNAKNTVYLQMNSLKPEETAVYYCAAEYYYGWTYSGGLGFLGYNYWGQGTQVTVSS")
"low polyreactivity"
>>> value_observed("QVQLVESGGGLVQAGGSLRLSCAASGITFSPYTRGWYRQATGKERELVAAINDGAITYYADSVKGRFTISRDNAKNTVYLQMNSQKPEDTAVYYCAAAAWGTDPFSTDYASYDYWGQVTQVTVSS")
"low polyreactivity"
>>> value_observed("QVQLVESGGGLVQAGGSLRLSCAASGFTFTYYAMGWSRQAPGKERELVATISSGGSTYYADSVKGRFTISRDNAKYTVYLQMISLKPEDTAVYYCAVTTYSGLYGFDYWGQGTQVTVSS")
"low polyreactivity"
>>> value_observed("QVQLVESGGGLVQAGGSLRLSCAASGRILLTYAMGWYRPAPGKERELVAAISSDSRTYYADSVKGRFTISRDNAQNTVYLQMNSLKPEDTAVYYCVRRRYKYDYWGQGTQVTVSS")
"low polyreactivity"
>>> value_observed("QVQLVESGGGLVQAGGSLRLSCAASGRIFPINVMGWYRQAPGKERELVAAISGRGGSTYYADSVKGRFTISRDNAKNTVYLQMNSLKPEDTAVYYCNAVRVSIPYIYTMDYWGQGTQVTVSS")
"high polyreactivity"
>>> value_observed("QVQLEESGGGLVQAGGSLRLSSAASGRTLVHYAIGSYRQAPGKEREMVAAISIGGDSTYADSVKGRFTISRDNAKNTVYLQMNSLKPEDTAVYYCAASGWWDFFDPYFKFDYWGQGTQVTVSS")
"low polyreactivity"
>>> value_observed("QVQLVESGGGLVQAGGSLRLSCAASGSTFYYYAMGWYRQAPGKERELVAAINSGGRTNYADSVKGRFTISRDNAKNTVYLQMNSLKPEDTAVYYCAKRTYPYGTYRSVWGYDYWGQGTQVTVSS")
"low polyreactivity"
>>> value_observed("QVQLVESGGGLVQAGGSLRLSCAASGGIFKRYAMGWYRQEPGKERELVAAISGRGGGTYYADSVKGRFTISRDNAKNTDYLQMNSLKPEDTAVYYCNARLSWSAFGYWGQGTQVTVSS")
"high polyreactivity"
>>> value_observed("QVQLVESGGGLVQAGGSLRLTCAASGRIFSRYAMGWYRQAPGKERELVASITRGGSTYADSVKGRFTISRDNAKNTVYLQMNSLKPEDTAVYYCNATYFTRYRQYDYWGQGTQVTVSS")
"low polyreactivity"
>>> value_observed("QVQLVESGGGLVQAGGSLRLSCAASGSISAGNAMGWYRQAPGKERELVAAITTSGGSTYYADSVKGRFTISRDNAKNTVYLQMNSLKPEDTAVYYCNVDPRKRSYDYWGQGTQVTVSS")
"high polyreactivity"
>>> value_observed("QVQLVESGGGLVQAGGSLRLSCAATGITFQPYTMGWYRQAPGKERELVASISIRGSRTYYADSVKGRFTISRDNAKNTVYLQMNSLKPEDTAVYYCNAPYNHVWAHSYWYDYWGQGTQVTVSS")
"high polyreactivity"
>>> value_observed("QVQLVESVGGLVQAGGSLRLSCAASGITFRWNAMGRYRQATGKERELVAAIRRSGRTYYADSVKGRFTISRDNAKNTVYLQMNSLKPEDTAVYYCAAVSGYRSSKYDYWGQGTQVTVSS")
"high polyreactivity"

====

- assay.name: yeast display, Sf9 membrane polyspecificity reagent, FACS + sequencing; frameworks hold sequencing errors
quantity.measured: polyreactivity (PSR sort gate)

>>> value_observed("QVQLEESGGGLVQAGGSLRLSCAASGRTFGLYAMGWYRQAPGKERELVAAITRSDGGTNYADSVKGRFTISRDNAKNTVYVQMNSLKPEDTSVYYCAVDLGYVSDVSWYAYEYWGQGTQVTVSS")
"low polyreactivity"
>>> value_observed("QVQLVDSGGGLVQAGGSLRLSCAASGSIFPRYAMGWYRQAPGKERELVASISASGGSTYYADSVKGRFTISRDNAKITVYLQMYSLKPEDTAVYYCAKADRTGWLDGDYWGQGTQVTVSS")
"low polyreactivity"
>>> value_observed("QVQLVESGGGLVQAGGSLRLSCAASGSIFPGYAMGWYRQAPGKERELVATITWSGGSTYYADSVKGRFTISRDKAKNTVYLQMNSLKPEDTAVYYCNADSNWYYQWNYYGLYDYWGQGTQVTVSS")
"low polyreactivity"

====

- assay.name: yeast display, Sf9 membrane polyspecificity reagent, FACS + sequencing; frameworks hold sequencing errors
quantity.measured: polyreactivity (PSR sort gate)

>>> value_observed("QDQLVESGGCLVQAGGSLRLSCASSGSTFGDYAMGWYRQAPGKERELVAAISVSGASTYYADSVKGRFTISRDNAKNTVYLQMNSLKPEDTAVYYCAASYDTIGDSWGQGTQVSVSS")
"low polyreactivity"
>>> value_observed("QVQLVESGGGLVQAGGSLRLSCAASGITFYRYTMGWYRQAPGKERELVATITSGASTSYADSVKGRFTISRDNAKNTVYLQMNSLKPEDTAVYYCAARRTRVTGRYSVYAFDYWGQGTQVTVSS")
"low polyreactivity"

====

- assay.name: yeast display, Sf9 membrane polyspecificity reagent, FACS + sequencing; frameworks hold sequencing errors
quantity.measured: polyreactivity (PSR sort gate)

>>> value_observed("QVHLVESGGGLVQAGGSLRLSCAASGSIFSVYTMGWYRQATGKEREFVPSIDWSAGSTNYADSVKGRFTISRDNAKNTVYFQRNSLKPEDTADDYCARAGSSWDTLYKYYLEHDYWGQGSQVTVSS")
"low polyreactivity"
>>> value_observed("QVQLVESGGGLVQAGGSLRLSSAASGSTSRYYDMGWYRQSPGKVRELVAAITWSGGTTYYADSVKGRFTISRDNAKNTVYLQMNSLKPDDPAVYYCAADASYTYYEFVYWGQGTQVTVSS")
"low polyreactivity"
>>> value_observed("QVQLVESGGGLVQAGGSLRLICAASGFTFYKYTMGWYRQAPGKERELVAAISARGGSTYYADSVKGRFTISRDNAKNTVYLQMNSLKPEDTAVYYCAADYWRTYGLGYDYWGQGTQVTVSS")
"high polyreactivity"
>>> value_observed("QVQLVESGGGLVQAGGSLRLSCAASGSIFKIYAMGWYRQAPGKARELVATISINGGSTYYADSVKGRFTISRDNAKNTVYLQMNSLKPEDTAVYDCNKVNEYITSQDDYGGQGTQVTVSS")
"low polyreactivity"
>>> value_observed("QVQLVESGGGLVQAGGSLRLSCAASGRILYSYAMGWYRQAPGKERELVAAISSTGSTYYADSVKGRFTISRDNAKNTVYLQMNSLKPEDTAVYYCAATFYPYQVHHYYYWGKGTQVTVSS")
"low polyreactivity"
>>> value_observed("QVQLVESGGGLVQAGGSLRLSCAASGRNFPLNGMGWYRQAPGKERELVAAISYRGGSTYYADSVKGRFTISRDNPKNTVYLQMNSLKPEDTAVYYCAADYVSRRYYYWGQGTQVTVSS")
"high polyreactivity"
>>> value_observed("QVQLVESGGGLVQAGGSLRLSCAASGSIFPSYAMGWYRQAPGKDRELVATLGRGGTTNYADSVKGRFTLSRDNAKNTVYIQMNSLKPEDTAVYYCNAERIWRYKDGYDYWGQGTQVTVSS")
"high polyreactivity"
>>> value_observed("QVQLVESAGGLVQAGGSLRLSCAASGIIFPAYAMGWYRQAPGKERELVAGISGRGGSTYYADSVKGRFTISRDNAKNTVYLQMNSLKPEDTAVYYCAAYAGGPYKFDYWGQGTQVTVSS")
"high polyreactivity"
>>> value_observed("HVQLVESGGGLVQAGGSLRLSCAASGRIFWRYAMGWYRQAPGKEREFVADITYSGGSTYYADSVKGRFTISRDNAKNTVYLQMNSLKPEDTAVYYCAAGWVRPWATYKLDYWGQGTQVTVSS")
"high polyreactivity"
>>> value_observed("QVQLVESGGGLVQAGGSIRLTCAASGRIFYLNAMGWYRQAPGKEREMGAAITWSGGRTYYADSVKGRFTISRDNAKNTVYLQMNSLKPEDTAVYYCAAVPRPGPNTVLTPYGYWGQGTQVTVSS")
"high polyreactivity"
>>> value_observed("QGQLVESGGGLVQAGGSLRLSCAASGSILLYYAMGWYRQAPGKEWELVAAITGGGGTNYADAGKGRFTISRDNAKNTVYLQMNSLIPEDTAVYYCAADPSGQFPYSYYNYDYDYWGQGTQVTVSS")
"low polyreactivity"
>>> value_observed("QVQLVESGGGLVQAGGSLRLICAASGSIFAYYAMGWYRQAPGKERELVGTNYADSVKGRFTISRDNAKNTVYLQMNSLKPEDTAVYYCAASSRRYLWGFDYWGQGTQVTVSS")
"low polyreactivity"
>>> value_observed("QVQLVESGGGLVHAGGSLRLSCAASGSTFDRNAMGWARQAPGKDMELVDAISRSGGSTNYADSVKGRFTISRDNAKNTVYLQMNSLKPEDTAVYYCAAVRPLWYGQGWALYWFEYWGQGTQVTVSS")
"low polyreactivity"
>>> value_observed("QVQLVESGGGLVQAGGSLRLSCAASGSTSTQYAMGWYRQAPGKERELVAGITQSGGSTYYADSVKGRFTISRDNAKNTVYLQMNSLKPEDTAVYYCAAPPGYTGRYDYYYWGQGTQVTVSS")
"high polyreactivity"
>>> value_observed("QVQLVESGGGLVQAGGSLRLSCAASGITSARYAMGWYRQAPGKERELVAAITLSGVRTYYADSVKGRFTISRDQAKNTVYLQMNSLKPEDTAVYYCNTVYYSKWGQGTQVTVSS")
"low polyreactivity"
>>> value_observed("QVQLVESGGGLDQAGGSLRLSCAASGSIFFYYAMVWYRQAPGKERELVADITSGGTTYYADSVKGRFTISRDNAKNTVYLQLNSLKPEDTAVYYCNACLYPGQRPDYTNYSSDYLGQGTQVTVSS")
"low polyreactivity"
>>> value_observed("QVQLVESGGGKVQAGGSLRLSCAASGRIFPEYAMGWYRQAPGKERELVAAISSGDNTTYADSVKGRFTISRDNAKNTVYLQMNSLKPEDTAVYYCNAGSGTTGQGGPIIEYGYWGQGTQVTVSS")
"low polyreactivity"
>>> value_observed("QVQLVESGGGLVQAGGSLRLSCAASGFTTSQYAMGWYRQAPGKERDLVAAITSSGSSTYYADSVKGRFTISRDNAKNTVYLQMNSLKPEDTAVYYFNTDAYHRYPGSVWYYYWGQGTQVTVSS")
"high polyreactivity"
>>> value_observed("QVQLVESGGGLVQAGGNLRLSCAASGSIFYWNAMGWYRQAPGKERELVAAINYSGDSTYYADSVKVRFTISRDNAKNTVYLQMNSLKPEDTAVYYCNFDYWGQGSQVTVSS")
"low polyreactivity"
>>> value_observed("QVQLVESGGGLVQAGGSLLLSCAASGSTFYLYAMGWYRQAPGKEMELVASISQSGGSTFYADSVKGRFTISRDNAKYTVYLQMNSLKPEDTAVYYCAADPNRSTDTVVPGFDYWGQGTQVTVSS")
"high polyreactivity"
>>> value_observed("QVQLVESGGGVVQAGGSLRLSCASSGRTFSRYTMGWYRQAPGKERELVAVITASGTSTYYADSVKGRFTISRDNAKYTVYLQMISQKPEDTAVYYCAAYYPTYYRYSSLTMNYWGQGTQVTVSS")
"high polyreactivity"
